Hey, just so you know, these numbers are from ChEMBL document CHEMBL2069243.

Assay comment: Drug uptake in rat liver at 10 mg/kg, po at 6 hrs
Type: ADME, organism-based
Parameters: dose 10 mg/kg, route oral
Condition notes: read-out: Drug uptake
Attribute measured: concentration at 6 h (ng/g)

Req: Item under review: Cc1ccc([C@@H](C)Nc2nc(C)c(-c3nc4cnccc4s3)c(N[C@@H]3C[C@H](CO)[C@@H](O)[C@H]3O)n2)cc1 . Reported concentration at 6 h?
Resp: 116

[P] Cc1nc(NC2CC2)nc(N[C@@H]2C[C@H](CO)[C@@H](O)[C@H]2O)c1-c1nc2cnccc2s1
[Q] Cc1nc(Nc2ccccc2)nc(N[C@@H]2C[C@H](CO)[C@@H](O)[C@H]2O)c1-c1nc2cnccc2s1
Req: Pick one: P or Q . Which has the bigger concentration at 6 h number? Write down the label of the entry you select.
Resp: P
(P: 276 ng/g, Q: 29 ng/g)
